molecular target: furin, P09958; test: furin cleavage Z-score vs untreated control; higher = more cleavage, active = 3.5 or more, inactive = 1 or less, 8 variable residues between constant flanks; conditions: 15 min;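 also: purified furin at 1:10 enzyme:substrate in 50 mM HEPES pH 7.5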
Sequence (P09958 whole entry): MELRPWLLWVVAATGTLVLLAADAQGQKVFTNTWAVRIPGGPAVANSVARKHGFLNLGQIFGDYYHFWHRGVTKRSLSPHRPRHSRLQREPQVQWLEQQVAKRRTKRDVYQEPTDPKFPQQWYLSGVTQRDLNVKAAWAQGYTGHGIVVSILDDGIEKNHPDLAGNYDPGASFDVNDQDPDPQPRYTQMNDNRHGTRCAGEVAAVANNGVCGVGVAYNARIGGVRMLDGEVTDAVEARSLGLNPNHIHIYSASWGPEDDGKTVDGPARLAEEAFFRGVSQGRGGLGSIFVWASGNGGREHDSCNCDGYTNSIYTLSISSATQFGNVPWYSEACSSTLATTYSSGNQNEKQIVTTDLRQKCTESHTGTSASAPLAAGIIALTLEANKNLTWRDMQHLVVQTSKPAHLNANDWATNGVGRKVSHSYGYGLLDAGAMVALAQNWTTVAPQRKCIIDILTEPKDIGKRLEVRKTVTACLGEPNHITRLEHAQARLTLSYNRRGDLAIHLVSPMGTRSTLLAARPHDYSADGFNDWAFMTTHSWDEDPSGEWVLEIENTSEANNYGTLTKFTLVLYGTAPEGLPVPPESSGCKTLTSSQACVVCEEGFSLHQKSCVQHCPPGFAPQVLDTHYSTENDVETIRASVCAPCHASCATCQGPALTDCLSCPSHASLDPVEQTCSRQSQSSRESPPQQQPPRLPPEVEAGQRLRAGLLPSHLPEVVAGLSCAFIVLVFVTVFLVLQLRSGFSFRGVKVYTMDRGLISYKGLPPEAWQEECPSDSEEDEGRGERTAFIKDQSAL
The list shows a part of the results. How many sequences the whole screen found active is unknown.
Classes used: True (active), False (inactive)

| chain sequence | assigned category |
| --- | --- |
| CAEGQRKRRNAGNASASA [FS-19] | True |
| CAFLLALLSCAGNASASA [HC249] | False |
| CALIHLHQNIAGNASASA [HC505] | False |
| CAAQKRSVGSAGNASASA [FS-2626] | False |
| CARPARLVPAAGNASASA [FS-2398] | False |
| CARPARSVSKAGNASASA [FS-2498] | True |
| CARPARSVGSAGNASASA [FS-2736] | True |
